Assay: Hemolytic activity
Assay type: cell-based, Human
Details: human, human red blood cell suspension; hRBCs, 1 h at 37° C.; read-out: HD50, dose required to lyse 50% of the red blood cells
Procedure: Procedure for measurements of hemolytic activity: Human red blood cells (hRBCs) were washed multiple times with phosphate-buffered saline (PBS) until a clear supernatant was obtained. […] Next, 50 μL of the supernatant was transferred into a second plate, and the absorbance was read at 490 nm using a BioRad iMark plate reader. […] Hemolytic activity was determined or estimated with the Hemolytic Concentration leading to 50% of lysis of hRBCs (HC50).
EXPERIMENTAL_ENDPOINT: HC50 at 1 h

Q: For the compound CC(=O)N[C@@H](CCCNC(=N)N)c1nc(C)sc1C(=O)N[C@@H](C)c1nc(CCCNC(=N)N)sc1C(=O)N[C@@H](C)c1nc(C)sc1C(=O)N[C@@H](CCCNC(=N)N)c1nc(C)sc1C(=O)N[C@@H](C)c1nc(CCCNC(=N)N)sc1C(=O)N[C@@H](C)c1nc(C)sc1C(=O)N[C@@H](CCCNC(=N)N)c1nc(C)sc1C(=O)N[C@@H](C)c1nc(CCCNC(=N)N)sc1C(=O)N[C@@H](C)c1nc(C)sc1C(=O)N[C@@H](CCCNC(=N)N)c1nc(C)sc1C(=O)N[C@@H](C)c1nc(CCCNC(=N)N)sc1C(=O)N[C@@H](C)c1nc(C)sc1C(N)=O [Oligomer 9] , give its reported HC50 at 1 h.
Ans: > 100 µM

Q: For the compound CC(=O)N[C@@H](CCCCN)c1nc(C)sc1C(=O)N[C@@H](CC(C)C)c1nc(CCCCN)sc1C(=O)N[C@@H](C)c1nc(CC(C)C)sc1C(=O)N[C@@H](CCCCN)c1nc(C)sc1C(=O)N[C@@H](CC(C)C)c1nc(CCCCN)sc1C(=O)N[C@@H](C)c1nc(CC(C)C)sc1C(=O)N[C@@H](CCCCN)c1nc(C)sc1C(=O)N[C@@H](CC(C)C)c1nc(CCCCN)sc1C(=O)N[C@@H](C)c1nc(CC(C)C)sc1C(=O)N[C@@H](CCCCN)c1nc(C)sc1C(=O)N[C@@H](CC(C)C)c1nc(CCCCN)sc1C(=O)N[C@@H](C)c1nc(CC(C)C)sc1C(N)=O [Oligomer 7] , give its reported HC50 at 1 h.
Ans: > 100 µM
